Recorded values, source patent US8962830B2.

biological target: Src recombinant enzyme, N-terminally His6 tagged full-length human protein (Homo sapiens); construct: Src recombinant enzyme was purchased as N-terminally His6 tagged full-length human protein; His6 (N); experiment: SRC kinase inhibition assay (AlphaScreen); settings: 80 μM ATP, 90 minutes at 30 degree Celsius
Sequence (P12931 whole entry): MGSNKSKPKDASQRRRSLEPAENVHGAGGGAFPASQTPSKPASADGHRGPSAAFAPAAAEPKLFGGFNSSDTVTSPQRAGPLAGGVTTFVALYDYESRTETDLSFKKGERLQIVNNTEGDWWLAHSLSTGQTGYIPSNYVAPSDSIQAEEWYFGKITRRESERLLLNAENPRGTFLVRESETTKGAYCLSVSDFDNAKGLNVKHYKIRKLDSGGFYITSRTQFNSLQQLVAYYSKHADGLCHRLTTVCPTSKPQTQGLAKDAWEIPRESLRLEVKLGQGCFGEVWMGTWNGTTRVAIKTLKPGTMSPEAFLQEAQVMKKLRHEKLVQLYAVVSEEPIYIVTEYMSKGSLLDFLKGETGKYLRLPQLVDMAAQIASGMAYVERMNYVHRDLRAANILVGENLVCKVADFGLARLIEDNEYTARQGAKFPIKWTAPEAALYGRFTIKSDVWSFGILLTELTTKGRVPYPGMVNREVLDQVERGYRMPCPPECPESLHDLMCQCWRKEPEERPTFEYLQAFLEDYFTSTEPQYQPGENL
pIC50: −log10 of the molar value.
Hi there, I'd appreciate the recorded pIC50 for every entry that follows.

// below: answered molecules
1) Cc1ccc(-c2nn(C(C)(C)CNC(=O)c3ccc(Cl)nc3Cl)c3ncnc(N)c23)cc1	6.00 to 7.00
2) COCCOc1ccnc(C(=O)NCC(C)(C)n2nc(-c3ccc(C)cc3)c3c(N)ncnc32)c1	7.00 to 9.00
3) Cc1ccc(-c2nn(C(C)(C)CNC(=O)c3cccc(F)c3)c3ncnc(N)c23)cc1	5.00 to 6.00

Provide the reported pIC50 of each entry below, same order.
1. CCOc1ccc(C(=O)NCC(C)(C)n2nc(-c3ccc(C)cc3)c3c(N)ncnc32)cc1Cl
2. Cc1ccc(-c2nn(C(C)(C)CNC(=O)c3ccc(N4CCCCC4)cc3)c3ncnc(N)c23)cc1
3. Cc1ccc(-c2nn(C(C)(C)CN(C)C)c3ncnc(N)c23)cc1
4. Cc1ccc(-c2nn(C(C)(C)CNC(=O)c3cc(Cl)ccn3)c3ncnc(N)c23)cc1
5. Cc1ccc(-c2nn(C(C)(C)CNC(=O)CCCCCNC(=O)OCc3ccccc3)c3ncnc(N)c23)cc1

### Response
1. 6.00 to 7.00
2. 6.00 to 7.00
3. 5.00 to 6.00
4. 6.00 to 7.00
5. 6.00 to 7.00

Provide the reported pIC50 of each entry below, same order.
1. Cc1ccc(-c2nn(C(C)(C)CNC(=O)c3ccc(C)cn3)c3ncnc(N)c23)cc1
2. Cc1ccc(-c2nn(C(C)(C)CNC(=O)c3cc(CN4CCCCC4)ccn3)c3ncnc(N)c23)cc1
3. COCCC(=O)NCC(C)(C)n1nc(-c2ccc(C)cc2)c2c(N)ncnc21
4. Cc1ccc(-c2nn(C(C)(C)CNC(=O)CCCc3ccc4c(c3)OCCO4)c3ncnc(N)c23)cc1
5. Cc1ccc(-c2nn(C(C)(C)CNC(=O)c3cnn(-c4ccc(Br)cc4)c3C(F)(F)F)c3ncnc(N)c23)cc1

### Response
1: 7.00 to 9.00; 2: 7.00 to 9.00; 3: 7.00 to 9.00; 4: 6.00 to 7.00; 5: 6.00 to 7.00

Provide the reported pIC50 of each entry below, same order.
1. Cc1ccc(-c2nn(C(C)(C)CNC(=O)c3cccc(F)n3)c3ncnc(N)c23)cc1
2. CC(=O)CCCC(=O)NCC(C)(C)n1nc(-c2ccc(C)cc2)c2c(N)ncnc21
3. CC(C)(CNC(=O)c1ccccn1)n1nc(-c2ccc(Cl)cc2)c2c(N)ncnc21
4. CC(=O)c1ccc(OCC(=O)NCC(C)(C)n2nc(-c3ccc(C)cc3)c3c(N)ncnc32)cc1
5. Cc1ccc(-c2nn(C(C)(C)CNC(=O)c3ccncc3)c3ncnc(N)c23)cc1

### Response
["6.00 to 7.00", "6.00 to 7.00", "7.00 to 9.00", "5.00 to 6.00", "5.00 to 6.00"]

Provide the reported pIC50 of each entry below, same order.
1. Cc1ccc(-c2nn(C(C)(C)CNC(=O)c3cscn3)c3ncnc(N)c23)cc1
2. CC(=O)NCC(C)(C)n1nc(-c2ccc(C)cc2)c2c(N)ncnc21

### Response
1. 7.00 to 9.00
2. 6.00 to 7.00
